test system: HAP1 MTAP-deleted cell line; assay: SDMA in-cell western assay, HAP1 MTAP-deleted; assay type: cell-based; conditions: Homo sapiens, HAP1, SDMA in-cell western, HAP1 MTAP-deleted; read-out: HAP1 MTAP deleted IC50
pIC50: −log10 of the molar value.
assay endpoint: pIC50

- C[C@@H]1CC[C@@H](c2cccc(OC(F)(F)F)c2)N(C(=O)C(=O)Nc2cncc(C(N)=O)c2)C1 (racemic): 6.00 to 7.00
- C[C@@H]1CC[C@@H](c2ccc3nccn3c2)N(C(=O)C(=O)Nc2cncc(C(N)=O)c2)C1 (racemic): < 6.00
- COc1ncc(NC(=O)C(=O)N2C[C@@H](C)CC[C@@H]2c2cc(F)c(F)c(F)c2)cc1C(N)=O (single isomer, unassigned): < 6.00
- Cc1cc([C@@H]2CC[C@@H](C)CN2C(=O)C(=O)Nc2cncc(C(N)=O)c2)ccn1 (single isomer, unassigned): < 6.00
- C[C@H]1CC[C@H](c2cc(F)c(F)c(Cl)c2)N(C(=O)C(=O)Nc2cncc(C(N)=O)c2)C1 (single isomer, unassigned): < 6.00
- CCc1cc(NC(=O)C(=O)N2C[C@@H](C)CC[C@@H]2c2ccc(F)cc2)cnc1N (racemic): > 7.00
- CCc1cc(NC(=O)C(=O)N2C[C@@H](C)CC[C@@H]2c2ccc3sc(C4CCN(C)CC4)nc3c2)cnc1C: > 7.00
- C[C@H]1CC[C@H](c2ccc3[nH]c(=O)ccc3c2)N(C(=O)C(=O)Nc2cncc(C(N)=O)c2)C1 (single isomer, unassigned): 6.00 to 7.00
- C[C@@H]1CC[C@@H](c2ccc(CN3CCOCC3)cc2)N(C(=O)C(=O)Nc2cncc(C(N)=O)c2)C1 (racemic): 6.00 to 7.00
- COc1cc(OC)cc([C@@H]2CC[C@@H](C)CN2C(=O)C(=O)Nc2cncc(C(N)=O)c2)c1 (racemic): 6.00 to 7.00
- N#C[C@@H]1CCN(C(=O)C(=O)Nc2cncc(C(N)=O)c2)[C@H](c2ccccc2)C1 (single isomer, unassigned): < 6.00
- Cc1cc(NC(=O)C(=O)N2C[C@H](C)CC[C@H]2c2ccc3sc(C(F)(F)F)nc3c2)cnc1N (racemic): > 7.00
- C[C@@H]1CC[C@@H](c2ccc(S(N)(=O)=O)cc2)N(C(=O)C(=O)Nc2cncc(C(N)=O)c2)C1 (single isomer, unassigned): < 6.00

* * *

tested on: HAP1 MTAP-deleted cell line; assay: SDMA in-cell western assay, HAP1 MTAP-deleted; type: cell-based; details: Homo sapiens, HAP1, SDMA in-cell western, HAP1 MTAP-deleted; read-out: HAP1 MTAP deleted IC50
pIC50: −log10 of the molar value.
assay endpoint: pIC50

• Cc1c(NC(=O)C(=O)N2[C@H](C)CCC[C@@H]2c2ccccc2)cnc(N)c1C (single isomer, unassigned) = > 7.00
• CNc1nc2cc([C@H]3CC[C@H](C)CN3C(=O)C(=O)Nc3cnc(OC)c(C(N)=O)c3)ccc2s1 (single isomer, unassigned) = > 7.00
• CNc1nc2cc([C@H]3CC[C@H](C)CN3C(=O)C(=O)Nc3cncc(C(N)=O)c3)ccc2s1 (single isomer, unassigned) = < 6.00
• CC(C)[C@@H]1CC[C@@H](C)CN1C(=O)C(=O)Nc1cncc(C(N)=O)c1 (racemic) = 6.00 to 7.00
• CCc1cc(NC(=O)C(=O)N2C[C@@H](C)CC[C@@H]2c2ccc(NC)nc2)cnc1N (single isomer, unassigned) = < 6.00
• C[C@@H]1CC[C@@H](c2ccc(F)cc2)N(C(=O)C(=O)Nc2cnc(N)c(C(F)(F)F)c2)C1 (racemic) = 6.00 to 7.00
• Cc1cc(NC(=O)C(=O)N2C[C@H](C)CC[C@H]2c2cccc3c2CC(=O)N3)cnc1N (racemic) = 6.00 to 7.00
• Cc1cc(NC(=O)C(=O)N2C[C@@H](C)CC[C@@H]2C23CC(C(N)=O)(C2)C3)cnc1N (single isomer, unassigned) = < 6.00
• C[C@@H]1CC[C@@H](c2ccc(F)c(F)c2)N(C(=O)C(=O)Nc2cncc(C(N)=O)c2)C1 (single isomer, unassigned) = < 6.00
• Cc1cc(NC(=O)C(=O)N2C[C@@H](C)CC[C@@H]2c2cccc(C(F)(F)F)c2)cnc1N (single isomer, unassigned) = < 6.00
• NC(=O)c1cncc(NC(=O)C(=O)N2CC3(CCC2c2ccc(F)cc2)CC3)c1 (stereo not shown) = 6.00 to 7.00
• CCc1cc(NC(=O)C(=O)N2C[C@@H](C)CC[C@@H]2c2ccc(F)cc2)cnc1C = 6.00 to 7.00
• CCc1cc(NC(=O)C(=O)N2C[C@@H](C)CC[C@@H]2c2ccc3sc(C[C@@H](C)N(C)C)nc3c2)cnc1N = > 7.00
• C[C@H]1CC[C@H](c2ccc(C(N)=O)s2)N(C(=O)C(=O)Nc2cncc(C(N)=O)c2)C1 (single isomer, unassigned) = < 6.00
• CNC(=O)N1CCC([C@@H]2CC[C@@H](C)CN2C(=O)C(=O)Nc2cnc(N)c(C)c2)CC1 (racemic) = > 7.00
• COc1ncc(NC(=O)C(=O)N2C[C@@H](C)CC[C@@H]2c2ccc3sc([C@H]4CCN(C)C[C@H]4C)nc3c2)cc1C(N)=O (racemic) = > 7.00
• C[C@H]1C[C@H](C)[C@H](c2ccccc2)N(C(=O)C(=O)Nc2cncc(C(N)=O)c2)C1 (single isomer, unassigned) = > 7.00
• Cc1cc(NC(=O)C(=O)N2C[C@@H](C)CC[C@H]2C23CC(O)(C2)C3)cnc1N (racemic) = < 6.00
• Cc1ncc(NC(=O)C(=O)N2C[C@@H](C)CC[C@@H]2c2ccccc2)cc1C(N)=O (single isomer, unassigned) = > 7.00
• Cc1c(NC(=O)C(=O)N2C[C@@H](C)CC[C@@H]2c2ccccc2)cnc(N)c1C (single isomer, unassigned) = > 7.00
• COc1cc([C@@H]2CC[C@@H](C)CN2C(=O)C(=O)Nc2cncc(C(N)=O)c2)ccc1F (racemic) = 6.00 to 7.00
• COCCc1nc2cc([C@H]3CC[C@H](C)CN3C(=O)C(=O)Nc3cnc(N)c(C4CC4)c3)ccc2s1 (single isomer, unassigned) = < 6.00
• C[C@H]1CC[C@H](c2ccc3c(c2)CNC3=O)N(C(=O)C(=O)Nc2cncc(C(N)=O)c2)C1 (single isomer, unassigned) = < 6.00
• CNc1nc2cc([C@@H]3CC[C@@H](C)CN3C(=O)C(=O)Nc3cnc(C)c(C)c3)ccc2s1 (racemic) = > 7.00
• Cc1cc(NC(=O)C(=O)N2C[C@@H](C)[C@@H](OC(F)(F)F)C[C@@H]2c2ccc(F)cc2)cnc1N (single isomer, unassigned) = > 7.00
